Tested on: Escherichia coli TOP10;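 note: peptides expressed intracellularly from a pBAD plasmid library in pooled LB shake-flask culture, induced with 0.3% L-arabinose, DNA abundance read by NGS, three biological replicates, DESeq2 with apeglm shrinkage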
assay info: shrunken log2 fold change of peptide-encoding DNA abundance (4.5 h post-induction vs induction); higher = less antimicrobial activity (less host growth inhibition)
conditions: time post-induction: 4.5 h; library: site-saturation at positions 5, 18, 19, 20
property measured: shrunken log2 fold change
// return a plain number; no unit text

Quickly give me recorded shrunken log2 fold change for RRIRQRPPRLPRPRPRPDERPRP
-0.00664

Quickly give me recorded shrunken log2 fold change for RRIRTRPPRLPRPRPRPLVTPRP
-0.227

Quickly give me recorded shrunken log2 fold change for RRIRTRPPRLPRPRPRPHGEPRP
0.16

Quickly give me recorded shrunken log2 fold change for RRIRRRPPRLPRPRPRPKIIPRP
-0.364

Quickly give me recorded shrunken log2 fold change for RRIRNRPPRLPRPRPRPQGGPRP
-0.28

Quickly give me recorded shrunken log2 fold change for RRIRNRPPRLPRPRPRPVYWPRP
0.0175

Quickly give me recorded shrunken log2 fold change for RRIRFRPPRLPRPRPRPEVMPRP
-0.0905

Quickly give me recorded shrunken log2 fold change for RRIRNRPPRLPRPRPRPCHPPRP
-0.0698

Quickly give me recorded shrunken log2 fold change for RRIRSRPPRLPRPRPRPYSTPRP
-1.05

Quickly give me recorded shrunken log2 fold change for RRIRCRPPRLPRPRPRPCAEPRP
0.0802

Quickly give me recorded shrunken log2 fold change for RRIRMRPPRLPRPRPRPAFEPRP
0.763

Quickly give me recorded shrunken log2 fold change for RRIRCRPPRLPRPRPRPYMEPRP
-0.428

Quickly give me recorded shrunken log2 fold change for RRIRERPPRLPRPRPRPYKNPRP
-0.756

Quickly give me recorded shrunken log2 fold change for RRIRKRPPRLPRPRPRPDNNPRP
0.0165

Quickly give me recorded shrunken log2 fold change for RRIRLRPPRLPRPRPRPIPKPRP
-0.0415
